# measurement_notes: Activity of Beta-lactamase TEM-149 expressed in Escherichia coli HB101
Overview of reported kcat across a group of compounds:
reported_endpoint: kcat (s⁻¹)

chemical_structure	reported_endpoint	experimental_value
Cc1nnc(SCC2=C(C(=O)O)N3C(=O)[C@@H](NC(=O)Cn4cnnn4)[C@H]3SC2)s1	kcat	2.2
CO/N=C(\C(=O)N[C@@H]1C(=O)N2C(C(=O)[O-])=C(C[N+]3(C)CCCC3)CS[C@H]12)c1csc(N)n1	kcat	2.4
C[C@H]1[C@H](NC(=O)/C(=N\OC(C)(C)C(=O)O)c2csc(N)n2)C(=O)N1S(=O)(=O)O	kcat	4.7
CC1(C)S[C@@H]2[C@H](NC(=O)Cc3ccccc3)C(=O)N2[C@H]1C(=O)O	kcat	3.5
CO/N=C(\C(=O)N[C@@H]1C(=O)N2C(C(=O)O)=C(COC(C)=O)CS[C@H]12)c1csc(N)n1	kcat	0.07
CC(C)(O/N=C(\C(=O)N[C@@H]1C(=O)N2C(C(=O)[O-])=C(C[n+]3ccccc3)CS[C@H]12)c1csc(N)n1)C(=O)O	kcat	8.3
CC1(C)S[C@@H]2[C@H](NC(=O)[C@H](N)c3ccccc3)C(=O)N2[C@H]1C(=O)O	kcat	5.4
CCN1CCN(C(=O)N[C@@H](C(=O)N[C@@H]2C(=O)N3[C@@H]2SC(C)(C)[C@@H]3C(=O)O)c2ccccc2)C(=O)C1=O	kcat	2.7
